B1: HDV Ribozyme (parent)
chain: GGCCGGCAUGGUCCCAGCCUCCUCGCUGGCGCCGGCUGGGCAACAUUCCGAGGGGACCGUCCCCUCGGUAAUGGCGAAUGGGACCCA

Variants of: B1
EXPERIMENT SUMMARY: self-cleavage, relative activity (ratio to wild type); higher = more cleavage; co-transcriptional
Each record gets a class by self-cleavage: L = under 0.2, M = from 0.2 up to 0.5, H = 0.5 and over

{"VARIANT DESCRIPTION": "A8G C44U", "ASSIGNED CLASS": "M"}
{"VARIANT DESCRIPTION": "G1C G35A", "ASSIGNED CLASS": "M"}
{"VARIANT DESCRIPTION": "U23G A83U", "ASSIGNED CLASS": "L"}
{"VARIANT DESCRIPTION": "C18G U37C", "ASSIGNED CLASS": "M"}
{"VARIANT DESCRIPTION": "G6U C64G", "ASSIGNED CLASS": "M"}
{"VARIANT DESCRIPTION": "U72A A77U", "ASSIGNED CLASS": "M"}
{"VARIANT DESCRIPTION": "C49G G52C", "ASSIGNED CLASS": "M"}
{"VARIANT DESCRIPTION": "G5C C36U", "ASSIGNED CLASS": "L"}
{"VARIANT DESCRIPTION": "G11A A56G", "ASSIGNED CLASS": "M"}
{"VARIANT DESCRIPTION": "G5A G11A", "ASSIGNED CLASS": "L"}
{"VARIANT DESCRIPTION": "C7G A8C", "ASSIGNED CLASS": "L"}
{"VARIANT DESCRIPTION": "C14A G17C", "ASSIGNED CLASS": "L"}
{"VARIANT DESCRIPTION": "G17C G35C", "ASSIGNED CLASS": "L"}
{"VARIANT DESCRIPTION": "A56C G73A", "ASSIGNED CLASS": "H"}
{"VARIANT DESCRIPTION": "G52A G55A", "ASSIGNED CLASS": "H"}
{"VARIANT DESCRIPTION": "G11U G74U", "ASSIGNED CLASS": "L"}
{"VARIANT DESCRIPTION": "U60A C86U", "ASSIGNED CLASS": "H"}
{"VARIANT DESCRIPTION": "C22G G55C", "ASSIGNED CLASS": "L"}
{"VARIANT DESCRIPTION": "C21U G34C", "ASSIGNED CLASS": "L"}
{"VARIANT DESCRIPTION": "G73U C86G", "ASSIGNED CLASS": "M"}
{"VARIANT DESCRIPTION": "G34U G54A", "ASSIGNED CLASS": "L"}
{"VARIANT DESCRIPTION": "G50C C85G", "ASSIGNED CLASS": "H"}
{"VARIANT DESCRIPTION": "C21G C75A", "ASSIGNED CLASS": "L"}
{"VARIANT DESCRIPTION": "C48G G80C", "ASSIGNED CLASS": "M"}
{"VARIANT DESCRIPTION": "G11U C18U", "ASSIGNED CLASS": "L"}
{"VARIANT DESCRIPTION": "G39A C63G", "ASSIGNED CLASS": "M"}
{"VARIANT DESCRIPTION": "A42G A78G", "ASSIGNED CLASS": "L"}
{"VARIANT DESCRIPTION": "C48U G53C", "ASSIGNED CLASS": "H"}
{"VARIANT DESCRIPTION": "A51G A87C", "ASSIGNED CLASS": "H"}
{"VARIANT DESCRIPTION": "A16C C18G", "ASSIGNED CLASS": "L"}
{"VARIANT DESCRIPTION": "G11C U72C", "ASSIGNED CLASS": "L"}
{"VARIANT DESCRIPTION": "C4U G74U", "ASSIGNED CLASS": "L"}
{"VARIANT DESCRIPTION": "C7U G68U", "ASSIGNED CLASS": "H"}
{"VARIANT DESCRIPTION": "U23G G59U", "ASSIGNED CLASS": "H"}
{"VARIANT DESCRIPTION": "C66A C86G", "ASSIGNED CLASS": "H"}
{"VARIANT DESCRIPTION": "G10C C62A", "ASSIGNED CLASS": "H"}
{"VARIANT DESCRIPTION": "A70G C86U", "ASSIGNED CLASS": "H"}
{"VARIANT DESCRIPTION": "G11U G38C", "ASSIGNED CLASS": "L"}
{"VARIANT DESCRIPTION": "G17C A56C", "ASSIGNED CLASS": "M"}
{"VARIANT DESCRIPTION": "C57A U72C", "ASSIGNED CLASS": "H"}
{"VARIANT DESCRIPTION": "G52C A56C", "ASSIGNED CLASS": "H"}
{"VARIANT DESCRIPTION": "C44A G76U", "ASSIGNED CLASS": "H"}
{"VARIANT DESCRIPTION": "U20C C26G", "ASSIGNED CLASS": "L"}
{"VARIANT DESCRIPTION": "G5C G17U", "ASSIGNED CLASS": "L"}
{"VARIANT DESCRIPTION": "C57U A70U", "ASSIGNED CLASS": "H"}
{"VARIANT DESCRIPTION": "C33G G50C", "ASSIGNED CLASS": "M"}
{"VARIANT DESCRIPTION": "U12G A87U", "ASSIGNED CLASS": "H"}
{"VARIANT DESCRIPTION": "G11U U23A", "ASSIGNED CLASS": "M"}
{"VARIANT DESCRIPTION": "A8U A43C", "ASSIGNED CLASS": "M"}
{"VARIANT DESCRIPTION": "U20A G82A", "ASSIGNED CLASS": "L"}
{"VARIANT DESCRIPTION": "C57U U79C", "ASSIGNED CLASS": "M"}
{"VARIANT DESCRIPTION": "U47A G68C", "ASSIGNED CLASS": "H"}
{"VARIANT DESCRIPTION": "U20A A45U", "ASSIGNED CLASS": "L"}
{"VARIANT DESCRIPTION": "C62A C85G", "ASSIGNED CLASS": "H"}
{"VARIANT DESCRIPTION": "G28C G38A", "ASSIGNED CLASS": "L"}
{"VARIANT DESCRIPTION": "G80C C84U", "ASSIGNED CLASS": "L"}
{"VARIANT DESCRIPTION": "G11U C19A", "ASSIGNED CLASS": "L"}
{"VARIANT DESCRIPTION": "U79A C85A", "ASSIGNED CLASS": "H"}
{"VARIANT DESCRIPTION": "G39U A51U", "ASSIGNED CLASS": "H"}
{"VARIANT DESCRIPTION": "C57G A70G", "ASSIGNED CLASS": "H"}
{"VARIANT DESCRIPTION": "G6A A45G", "ASSIGNED CLASS": "M"}
{"VARIANT DESCRIPTION": "C36U U72G", "ASSIGNED CLASS": "M"}
{"VARIANT DESCRIPTION": "C13A A78U", "ASSIGNED CLASS": "L"}
{"VARIANT DESCRIPTION": "G39C C57U", "ASSIGNED CLASS": "M"}
{"VARIANT DESCRIPTION": "G10A G67A", "ASSIGNED CLASS": "H"}
{"VARIANT DESCRIPTION": "C33G A71U", "ASSIGNED CLASS": "M"}
{"VARIANT DESCRIPTION": "G76C A77U", "ASSIGNED CLASS": "M"}
{"VARIANT DESCRIPTION": "C4A G50C", "ASSIGNED CLASS": "M"}
{"VARIANT DESCRIPTION": "G2U A16G", "ASSIGNED CLASS": "L"}
{"VARIANT DESCRIPTION": "G5A C63U", "ASSIGNED CLASS": "L"}
{"VARIANT DESCRIPTION": "G52C G74U", "ASSIGNED CLASS": "M"}
{"VARIANT DESCRIPTION": "C44A A70C", "ASSIGNED CLASS": "M"}
{"VARIANT DESCRIPTION": "C15U U65A", "ASSIGNED CLASS": "H"}
{"VARIANT DESCRIPTION": "G6A G29C", "ASSIGNED CLASS": "L"}
{"VARIANT DESCRIPTION": "G53A C86U", "ASSIGNED CLASS": "H"}
{"VARIANT DESCRIPTION": "A45C A51U", "ASSIGNED CLASS": "H"}
{"VARIANT DESCRIPTION": "A16G U69C", "ASSIGNED CLASS": "H"}
{"VARIANT DESCRIPTION": "G1C G34A", "ASSIGNED CLASS": "L"}
{"VARIANT DESCRIPTION": "G55C G68C", "ASSIGNED CLASS": "H"}
{"VARIANT DESCRIPTION": "A16U C33G", "ASSIGNED CLASS": "L"}
{"VARIANT DESCRIPTION": "C58G C75G", "ASSIGNED CLASS": "M"}
{"VARIANT DESCRIPTION": "G34A U37A", "ASSIGNED CLASS": "L"}
{"VARIANT DESCRIPTION": "U12G A70G", "ASSIGNED CLASS": "H"}
